Just for reference, ChEMBL document CHEMBL1201862 is where these values come from.

System: SF-268
assay notes: NCI tumour cell line growth inhibition, 48 h
Active and inactive are the calls of the source. Rule as the data show it: active = GI50 up to about 1.1 µM and inactive = higher.
Write down the outcome that applies. Available outcomes: 1.0 (active), 0.0 (inactive)

Request: Assay outcome for C=CCc1cc2cccc(OC)c2oc1=O : what was it?
Result: 0.0

Request: Fill in: this test's call for CN(C)C(=O)NCCN1CCCCCc2ccccc21 is ___
Result: 0.0

Request: Hey, what did the test say about NC(=O)C(N)=O ?
Result: 0.0

Request: State the result this test recorded for COc1cc(C2c3cc4c(cc3OC(N3CCNCC3)C2C)OCO4)cc(OC)c1OC (configuration not stated) .
Result: 1.0

Request: Which result was noted for this compound in the test: CCOc1ccc(NC(=O)CC2C(=O)Nc3ccccc3S2(=O)=O)cc1 (configuration not stated)
Result: 0.0

Request: Assay outcome for CCN(CC)c1cccc2c1/C(=N/O)CCCC2 : what was it?
Result: 0.0

Request: Please state the recorded outcome for this compound: CN1C[C@@H]2CC(=O)CC[C@@H]2C[C@H]1C#N
Result: 0.0

====

System: UACC-62
assay notes: NCI tumour cell line growth inhibition, 48 h
Active and inactive are the calls of the source. Cut-off read from the data, not from the text of the source: active = GI50 up to about 1.1 µM and inactive = higher.
Can you tell me GI50 for the items I'm about to list?

Request: Recorded GI50 of COCCOc1cc(C)cc(/C=C(C)/C=C/C2=C(C)CCCC2(C)C)n1 , please.
Result: > 100 µM (inactive)

Request: State the recorded GI50 for this entry: Cc1cc(=O)n2c3c(c4c(cc13)c(CN(C)C)cc(=O)n4C)OC2
Result: 12.6 µM (inactive)

Request: Need GI50 of N#C/C(=C\c1cc(O)cc(O)c1)C(N)=O , thanks.
Result: > 100 µM (inactive)

Request: What measured GI50 goes with CC1(C)C2CCC(CN)(C2)C1O (centres undefined) ?
Result: > 100 µM (inactive)

Request: Bench note: what GI50 did CC[C@H](O)[C@H](C)C=C1SCCCS1 show?
Result: > 100 µM (inactive)

Request: Report GI50 for CNC(=O)/C(C#N)=C(\N)N1CCCC1 please.
Result: > 100 µM (inactive)

Request: I have this compound here, COC1C(O)C(C)OC(OC2C(Oc3cccc4c(O)c5c(=O)oc6ccc(C)c7c(=O)oc(c34)c5c67)OC(C)C3O[C@H](c4ccccc4)OC32)C1O (some centres undefined) , and I need its recorded GI50.
Result: 0.14 µM (active)

Request: Look up GI50 for this compound: O=C1C=C2C(=NC34CCCCC3C(c3ccccc3)C3=C(c5ccccc5CC3)N24)c2ccccc21 (centres undefined)
Result: > 10 µM (inactive)

Request: Find the recorded GI50 belonging to COc1ccc(-c2cc(-c3ccccc3)n(C3OC(COC(C)=O)C(OC(C)=O)C(OC(C)=O)C3OC(C)=O)c(=S)c2C#N)cc1 (centres undefined) and report it.
Result: 4.79 µM (inactive)

Request: What value of GI50 has been reported for the following compound? O=C1C=CC2(O[C@H](C3CCCCC3)[C@@H](C3CCCCC3)O2)C(SC(=O)c2ccccc2)C1 (some centres undefined)
Result: 2.48 µM (inactive)

Request: I would be grateful if you could share the reported GI50 for O=C(c1c(F)c(F)c(F)c(F)c1F)c1c(F)c(F)c(F)c(F)c1F .
Result: 1.92 µM (inactive)

Request: So what's the measured GI50 for this one? CCOP(=O)(OCC)/C(C#N)=C/c1ncc[nH]1
Result: > 100 µM (inactive)

Request: GET /values?readout=GI50&item= COC12CCC(C(C(=O)c3ccccc3)=C1C(=O)c1ccccc1)C(O)C2 (centres undefined)
Result: > 100 µM (inactive)

Request: Recorded GI50 of C[C@]12CC[C@H](O)CC1=CC[C@@H]1[C@@H]2CC[C@]2(C)C(=N/O)/C(=C/c3ccc([N+](=O)[O-])cc3)C[C@@H]12 , please.
Result: 10.9 µM (inactive)
